Tested On: NLRP3 inflammasome (Homo sapiens (Human))
Sequence (Q96P20 whole entry): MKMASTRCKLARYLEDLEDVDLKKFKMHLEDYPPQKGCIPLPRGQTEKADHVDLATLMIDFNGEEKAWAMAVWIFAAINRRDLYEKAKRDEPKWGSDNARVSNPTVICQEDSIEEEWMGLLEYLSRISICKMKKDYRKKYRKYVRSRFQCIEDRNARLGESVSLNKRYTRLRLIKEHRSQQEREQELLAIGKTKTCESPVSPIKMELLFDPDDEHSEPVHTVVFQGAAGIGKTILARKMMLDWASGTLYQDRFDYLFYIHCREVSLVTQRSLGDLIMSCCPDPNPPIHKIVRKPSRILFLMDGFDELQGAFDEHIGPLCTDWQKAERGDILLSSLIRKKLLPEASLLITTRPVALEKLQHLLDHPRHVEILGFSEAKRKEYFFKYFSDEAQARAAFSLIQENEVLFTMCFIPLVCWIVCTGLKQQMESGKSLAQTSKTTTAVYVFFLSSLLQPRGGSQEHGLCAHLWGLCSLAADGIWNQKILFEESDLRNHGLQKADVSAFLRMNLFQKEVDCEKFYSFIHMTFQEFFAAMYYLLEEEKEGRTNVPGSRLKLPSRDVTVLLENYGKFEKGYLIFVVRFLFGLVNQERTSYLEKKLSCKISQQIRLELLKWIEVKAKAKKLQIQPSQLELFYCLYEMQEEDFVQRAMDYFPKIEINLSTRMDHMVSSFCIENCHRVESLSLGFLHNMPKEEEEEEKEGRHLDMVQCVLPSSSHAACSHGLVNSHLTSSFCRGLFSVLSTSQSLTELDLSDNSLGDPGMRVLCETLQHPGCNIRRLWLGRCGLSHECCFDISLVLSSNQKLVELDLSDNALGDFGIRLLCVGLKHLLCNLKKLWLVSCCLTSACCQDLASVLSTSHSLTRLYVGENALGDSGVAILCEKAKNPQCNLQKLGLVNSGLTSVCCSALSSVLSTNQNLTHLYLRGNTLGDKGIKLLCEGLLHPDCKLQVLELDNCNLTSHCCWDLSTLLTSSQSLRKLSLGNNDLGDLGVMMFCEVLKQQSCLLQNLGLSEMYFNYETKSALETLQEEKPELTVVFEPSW
Experiment Notes: Evaluation of NLRP3 inflammasome inhibitory activity (inhibition of IL-1β production in THP1-Null cells, LPS/Nigericin)
Setup Conditions: inhibition of IL-1β production in THP1-Null cells
Mark 1 (yes) for IC50 under 200 nM, 0 (no) if at or over.

• Cc1ccc(C2CC2)cc1Nc1nc(C(=O)NS(=O)(=O)N(C)C)co1 = 0 (no)
• Cc1ccc(CC(F)(F)F)cc1Nc1nc(C(=O)NS(=O)(=O)N2CCCOCC2)co1 = 1 (yes)
• CCc1ccc(C(F)(F)F)cc1Nc1nc(C(=O)NS(=O)(=O)N(C)C)co1 = 1 (yes)
• CC(C)c1cn(C(C)C)nc1Nc1nc(C(=O)NS(=O)(=O)N(C)C)co1 = 1 (yes)
• Cc1ccc(C2(C)CC2)cc1Nc1nc(C(=O)NS(=O)(=O)N(C)C)co1 = 1 (yes)
• Cc1ccc(C)c(Nc2nc(C(=O)NS(=O)(=O)N3CCCOCC3)co2)c1 = 0 (no)
